System: UACC-62 melanoma
experiment.description: NCI tumour cell line growth inhibition, 48 h; in the data active = GI50 below about 0.43 µM; inactive = the rest
Choose the fitting class; nothing outside 1 = active, -1 = inactive is accepted.

- smiles.repr: "N#[N+]c1ccc(Nc2ccccc2)cc1"
  class: -1
- smiles.repr: "CS(=O)(=O)Nc1cc(-c2ccc3ncnc(Nc4cccc(Cl)c4)c3c2)cnc1Cl"
  class: 1
- smiles.repr: "COc1ccc(C2=Nn3c(nnc3-n3nc(C)cc3C)SC2)cc1"
  class: 1
- smiles.repr: "CC(=O)Oc1cc2cnc3c4cc(OC(C)=O)c(OC(C)=O)cc4ccc3c2cc1OC(C)=O"
  class: -1
- smiles.repr: "COc1ccc2c(c1)C(=O)c1c-2c(OCCN(C)C)nc2cc(OC)c(OC)cc12"
  class: -1

Exercise: Just curious, what result did C[C@@H]1CCc2ncc(F)cc2[C@H]2CCCN2c2ccn3ncc(c3n2)C(=O)N1 get here?
Key: -1

Exercise: Record request — test call for Cc1cc(NN=C(c2ccc(O)cc2)c2ccc(O)cc2)c([N+](=O)[O-])cc1[N+](=O)[O-]
Key: -1

Exercise: Please let me know the test result on file for COc1cc(-c2nn(-c3cccc(NC(=O)CCNc4ccc(N5CCOCC5)cc4)c3)cc2-c2ccncc2)ccc1Cl .
Key: -1

Exercise: Dear all, I need the recorded test outcome for CCCCCCCCCCCCCCCC[n+]1ccccc1 , thank you.
Key: -1

---

System: SR leukemia
experiment.description: NCI tumour cell line growth inhibition, 48 h; in the data active = GI50 below about 0.43 µM; inactive = the rest
API: response.call in true for active, false for inactive

Some entries whose results are on file:
- compound: "COCC(C(=O)OC1C/C=C/C=C/C(=O)OC(C(C)C(O)C(C)CCC(OC(=O)C(C)N(C)C)C(C)C(OC(C)=O)C(C)/C=C/N(C)C=O)C/C=C/C(OC)CC(C)C/C=C(\\C)C(OC)CCC(C)C(O)C1C)N(C)C (centres undefined)"
  class: "true"
- compound: "CCOc1ccc2cc(-c3nn(CC4CCNCC4)c4ncnc(N)c34)ccc2c1"
  class: "false"
- compound: "COc1ccc(C2NC(=S)NC3=C2CCOc2c3ccc3ccccc23)cc1 (centres undefined)"
  class: "false"
- compound: "CSC1=Nc2c(c(C)c(-c3ccccc3)n2COC(CO)CO)C2=NC(=O)CC(C)N12 (centres undefined)"
  class: "false"
- compound: "COc1cc2c3c(n(CCCNCCCNCCCN)c(=O)c2cc1OC)-c1cc2c(cc1C3=O)OCO2"
  class: "false"
- compound: "Cc1ccc(C2CC(c3ccc(Nc4ccnc5cc(Cl)ccc45)cc3)=NN2C=O)cc1 (centres undefined)"
  class: "false"

Exercise: Recorded call for CS(=O)(=O)Nc1cc(-c2ccc3ncnc(Nc4cccc(Cl)c4)c3c2)cnc1Cl ?
Key: true

Exercise: Which result was noted for this compound in the test: C[C@@H]1CCc2ncc(F)cc2[C@H]2CCCN2c2ccn3ncc(c3n2)C(=O)N1
Key: false

Exercise: // return assay outcome for COc1ccc(-c2c(N)noc2-c2cc(OC)c3c(c2)OCCO3)cc1
Key: true

---

Test system: NCI-H226 lung
experiment.description: NCI tumour cell line growth inhibition, 48 h
property: TGI (µM)
Use µM as the unit, but write only the number.

- molecule: "C=C1C[C@@H]2O[C@H]3[C@H]4[C@@H](CC[C@@](C)(OC(=O)CCC)[C@H]42)[C@@H](C)C(=O)O[C@@]3(C)CC[C@H]1OO"
  value.units: "µM"
  TGI: 32.2
- molecule: "CCOC(=O)CCC(NC(=O)c1ccc(NC(OC)c2nc3cc(C(F)(F)F)ccc3nc2-c2ccccc2)cc1)C(=O)OCC (centres undefined)"
  value.units: "µM"
  TGI: 35
- molecule: "CC(Cn1c2c(c3cc(O)ccc31)CCc1ccc(O)cc1-2)N(C)C (centres undefined)"
  value.units: "µM"
  TGI: 37.3

Now for a further molecule.
Exercise: Return TGI for the following molecule: COC(=O)c1c(O)ccc2c1c1c(n2Cc2cc(OC)cc(OC)c2)C(=O)c2ccccc2C1=O
Key: 39.3

---

System: SF-268 CNS
experiment.description: NCI tumour cell line growth inhibition, 48 h
property: TGI (µM)
Please respond with the number in µM and leave the unit unwritten.

- molecule: "OCC(O)C(O)C(O)c1nn(-c2ccc(F)cc2)c2nc3cc(Cl)c(Cl)cc3nc12 (stereo not given)"
  value.units: "µM"
  TGI: 43.3

Exercise: Supply measured TGI of Cn1cnnc1[S-].[Au+].c1ccc([PH+](c2ccccc2)c2ccccc2)cc1 in your reply.
Key: 3.44

---

Test system: OVCAR-5 ovarian
experiment.description: NCI tumour cell line growth inhibition, 48 h
Below, each entry is listed alongside its reported TGI.

// below: answered compounds
- compound: "CCOC(=O)c1c[nH]c(C(=O)C=[N+]=[N-])c1C1CCN(CC)C1=S (stereo not given)"
  property: "TGI"
  result: "> 100 µM"
- compound: "CC1=CCC(C(C)(C)NC(=O)c2ccccc2)C/C1=N/O (stereo not given)"
  property: "TGI"
  result: "> 100 µM"
- compound: "NC1=NCN(C2OC(CO)C(O)C2O)C(=O)N1 (stereo not given)"
  property: "TGI"
  result: "2150 µM"
- compound: "CCOC(=O)C1=C(OC(OCC)C(CC)[Se]c2ccccc2)CCC1 (stereo not given)"
  property: "TGI"
  result: "69.6 µM"

Now look at this entry.
Exercise: Specify measured TGI for CC(C)(C)OC(=O)CCCCCNC(=O)CCCCCNC(=O)CCC(CN(CC(=O)OCc1ccccc1)CC(=O)OCc1ccccc1)N(CC(=O)OCc1ccccc1)CC(=O)OCc1ccccc1 (stereo not given) .
Key: > 100 µM

---

Listed molecules paired with reported TGI
System: M19-MEL melanoma
experiment.description: NCI tumour cell line growth inhibition, 48 h
State just the number; it will be interpreted in µM.

Consider the reported TGI for these molecules:
- molecule: "OCC(O)C(O)C(O)c1nn(-c2ccc(F)cc2)c2nc3cc(Cl)c(Cl)cc3nc12 (centres undefined)"
  value.units: "µM"
  TGI: 57.8
- molecule: "Cc1cc(C)nc(NS(=O)(=O)c2ccc(Nc3c4ccccc4nc4c(C(=O)NCCN(C)C)cccc34)cc2)n1"
  value.units: "µM"
  TGI: 14.9
- molecule: "COc1cc([C@@H]2c3cc4c(cc3[C@@H](NCc3cccc(C#N)c3)C3COC(=O)[C@@H]32)OCO4)cc(OC)c1O (some centres undefined)"
  value.units: "µM"
  TGI: 50.3

Exercise: Tell me its TGI given CCOC(=O)C1=C(OC(OCC)C(CC)[Se]c2ccccc2)CCC1 (centres undefined) as the entry.
Key: 30.8

---

Tested on: HOP-92 NSCLC
experiment.description: NCI tumour cell line growth inhibition, 48 h
property: TGI

# count of solved cases: 4
- molecule: "C=C1C(O)C2(O)OCC34C(CC5C(C)=CC(=O)C(O)C5(C)C23)OC(=O)C(OC(=O)C/C=C/CCCCCCCC)C14 (stereo not drawn)"
  result: "0.0229 µM"
- molecule: "Nc1ccccc1C#Cc1ccccc1C#Cc1cccs1"
  result: "22.2 µM"
- molecule: "CN(C)CCN1CCc2c([nH]c3ccccc23)C1c1cccnc1 (stereo not drawn)"
  result: "> 100 µM"
- molecule: "COC(=O)c1c(O)ccc2c1c1c(n2Cc2cc(OC)cc(OC)c2)C(=O)c2ccccc2C1=O"
  result: "24.6 µM"

Exercise: Input CC1=CCC(C(C)(C)NC(=O)c2ccccc2)C/C1=N/O (stereo not drawn) , output reported TGI.
Key: > 100 µM

Exercise: For O=C(O)CCCCC1CCSS1 (stereo not drawn) , write its TGI.
Key: > 100 µM

Exercise: Look up and state reported TGI for CC(=O)N1C(Nc2nccs2)CCN1c1ccccc1 (stereo not drawn)
Key: > 10 µM

Exercise: Please report the measured TGI for Oc1ccccc1C=Nc1ccc(-c2nc3ccccc3s2)cc1
Key: 56.4 µM

Exercise: Give the measured TGI for COc1ccc2c(c1OC)O/C(=C\c1ncc([N+](=O)[O-])n1C)C2=O
Key: 4.86 µM

Exercise: Input COc1ccc(/C=C/C(=O)c2cc3c(N)c(C(=O)Nc4ccc(OC)cc4)sc3nc2C)cc1 , output reported TGI.
Key: > 50 µM

Exercise: Specify TGI for COc1ccc2nc3cc(Cl)ccc3c(NCCCN3CCN(CCCNc4ccc5nnn6c7ccccc7c(=O)c4c56)CC3)c2c1 and stop.
Key: > 25 µM

---

Test system: HT29 colon
experiment.description: NCI tumour cell line growth inhibition, 48 h
property: TGI

Previously resolved entries follow.
- compound: "COc1ccc(Br)c(C(=O)N2CCc3ccccc32)c1N"
  TGI: "> 100 µM"
- compound: "Cc1ccc(-c2cc(-c3ccc(Cl)cc3)nc(/N=C3\\C(=O)N(CN(C)C)c4ccccc43)n2)cc1"
  TGI: "> 100 µM"
- compound: "CC[C@H]1OC(=O)[C@H](C)[C@@H](O[C@H]2C[C@@](C)(OC)[C@@H](O)[C@H](C)O2)[C@H](C)[C@@H](O[C@@H]2O[C@H](C)C[C@H](N(C)C)[C@H]2O)[C@](C)(OC)C/C(C)=C2/O[C@@]1(C)C=C2C"
  TGI: "4.14 µM"
- compound: "O=C(NCCN1CCCCC1)c1cccc(I)c1"
  TGI: "> 100 µM"
- compound: "COC(=O)c1c(O)ccc2c1c1cc3ccccc3c(O)c1n2CCc1ccc(OC)c(OC)c1"
  TGI: "18.6 µM"

Exercise: Print HT29 colon TGI for COC(=O)/C=C/[C@@H]1[C@H](C)N1S(=O)(=O)c1ccc(C)cc1 (some centres undefined) .
Key: > 100 µM

Exercise: Quote TGI with test system HT29 colon for Nc1ccccc1C(=O)N=Nc1c(O)[nH]c2ccccc12
Key: > 100 µM

Exercise: Please report the measured TGI for Cn1nnc2c3c(N(CCO)CCO)ccnc3ccc21 tested on HT29 colon.
Key: > 100 µM

Exercise: Look up and report TGI, with HT29 colon as system, for CCN(c1ccccc1)[C@H]1C(=O)N(c2ccc([N+](=O)[O-])cc2)[C@H]1c1ccc(OC)cc1
Key: > 100 µM
